SYSTEM: CETP (Homo sapiens, UniProt P11597)
Construct: The donor lipoprotein obtained above was added to plasma of healthy subject
Sequence (P11597 18-493): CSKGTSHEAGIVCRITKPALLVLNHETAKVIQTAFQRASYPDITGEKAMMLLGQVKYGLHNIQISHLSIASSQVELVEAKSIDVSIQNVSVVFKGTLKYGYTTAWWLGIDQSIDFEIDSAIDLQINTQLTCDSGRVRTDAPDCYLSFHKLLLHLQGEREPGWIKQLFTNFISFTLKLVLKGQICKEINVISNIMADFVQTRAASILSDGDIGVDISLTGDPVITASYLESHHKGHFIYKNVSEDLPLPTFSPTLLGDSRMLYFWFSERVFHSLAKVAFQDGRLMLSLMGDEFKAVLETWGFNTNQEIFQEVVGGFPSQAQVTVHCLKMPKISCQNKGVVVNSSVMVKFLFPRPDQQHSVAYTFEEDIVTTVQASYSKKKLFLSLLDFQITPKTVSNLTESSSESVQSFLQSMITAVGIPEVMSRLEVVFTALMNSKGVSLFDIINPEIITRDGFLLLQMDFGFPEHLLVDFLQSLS
PROCEDURE_SUMMARY: Inhibitory effect in vitro on CETP activity in total plasma
SETUP_CONDITIONS: plasma of healthy subject with [3H]CE-HDL3, 37° C., 4 hr; average values
Counter-ions that a name gives are not always drawn.
Mark Criterion met only for IC50 values smaller than 200 nM; exact matches and larger values are Criterion not met.

CCN(CCC(C)(C)CC(=O)O)c1ccc(OC(F)(F)F)cc1CN(Cc1cc(C(F)(F)F)cc(C(F)(F)F)c1)c1noc(C)n1.Cl [Example 108, hydrochloride]; Criterion not met
CCN(C[C@H]1CC[C@H](C(=O)O)CC1)c1ccc(C(F)(F)F)cc1CN(Cc1cc(C(F)(F)F)cc(C(F)(F)F)c1)c1nnn(C)n1.Cl [Example 96, hydrochloride]; Criterion not met

IC50 strictly < 200 nM for this compound? CCN(CCCCC(=O)O)c1cc2c(cc1CN(Cc1cc(C(F)(F)F)cc(C(F)(F)F)c1)c1nnn(C)n1)CCC2.Cl [Example 38, hydrochloride]
Criterion not met

Say whether its IC50 is strictly beneath 200 nM. Entry: CCN(C[C@H]1CC[C@H](CC(=O)O)CC1)c1cc(C(F)(F)F)c(C)cc1CN(Cc1cc(C(F)(F)F)cc(C(F)(F)F)c1)c1nnn(C)n1.Cl [Example 143, hydrochloride]
Criterion met

Is it true that IC50 reported for CCN(C[C@H]1CC[C@H](CO)CC1)c1ccc(OC(F)(F)F)cc1CN(Cc1cc(C(F)(F)F)cc(C(F)(F)F)c1)c1nnn(C)n1 [Example 119, hydrochloride] is less than 200 nM?
Criterion met

Answer whether the compound CCN(C[C@H]1CC[C@H](CC(=O)O)CC1)c1cc(C)c(C(F)(F)F)cc1CN(Cc1cc(C(F)(F)F)cc(C(F)(F)F)c1)c1nnn(C)n1.Cl [Example 142, hydrochloride] has IC50 strictly less than 200 nM
Criterion met

Hello, I'm reviewing records and need to know if IC50 of CCN(CCC(C)(C)CC(=O)O)c1cc2c(cc1CN(Cc1cc(C(F)(F)F)cc(C(F)(F)F)c1)c1nnn(C)n1)CCC2.Cl [Example 92, hydrochloride] is below 200 nM. Could you check?
Criterion met

Confirm or reject: IC50 of CCN(C[C@H]1CC[C@H](C(=O)O)CC1)c1cc2c(cc1CN(Cc1cc(C#N)cc(C(F)(F)F)c1)c1ncn(C)n1)CCC2 [Example 60] lies strictly below 200 nM
Criterion not met

Input CCN(CCCCC(=O)OC)c1cc2c(cc1CN(Cc1cc(C(F)(F)F)cc(C(F)(F)F)c1)c1ccn(C)n1)CCCC2 [Example 63, hydrochloride] ; condition: IC50 strictly below 200 nM. Does it hold?
Criterion not met

Please indicate whether the reported IC50 of CCN(CC1CCCC1)c1cc2c(cc1CN(Cc1cc(C(F)(F)F)cc(C(F)(F)F)c1)c1noc(C)n1)CCC2 [Example 46, hydrochloride] is strictly below 200 nM.
Criterion not met

Does the reported IC50 of the following compound sit strictly below 200 nM? CCN(C[C@H]1CC[C@H](C(=O)O)CC1)c1ccc(OC(F)(F)F)cc1CN(Cc1cc(C(F)(F)F)cc(C(F)(F)F)c1)c1nnn(C)n1.Cl [Example 98, hydrochloride]
Criterion not met
